- Tested on: Passaged HIV-1
- protocol_details: Phenotypic susceptibility of in vitro passaged HIV-1 to the compound of Example 2B (MTT colorimetric assay)
- Assay type: cell-based
- conditions_used: Human immunodeficiency virus 1, NL43, read-out: The compound of Example 2B EC50 (µM), Virus NL4-3
quantity_kind: EC50
Returns: string containing the numeric result and its unit.

Q: Quick check: EC50 of Cc1cccc(C)c1OCC(=O)N[C@@H](Cc1ccccc1)[C@@H](O)C[C@H](Cc1ccccc1)NC(=O)[C@H](C(C)C)N1CCCNC1=O [Example 2B] ?
Ans: 0.028 µM

====

Hi there, I'd appreciate the recorded CC50 at 120 h for every entry that follows.
- protocol_details: 50% lethal concentration in uninfected MT4 cells (MTT)
- Type: cell-based
- conditions_used: human, read-out: LC50
Number in µM, nothing else.

Q: Quick check: CC50 at 120 h of Cc1cccc(C)c1OCC(=O)N[C@@H](Cc1ccccc1)[C@@H](O)C[C@H](Cc1ccccc1)NC(=O)[C@@H](N1CCNC1=O)C(C)(C)C [Example 8] ?
Ans: 17.8

Q: Quick check: CC50 at 120 h of Cc1cc(N)cc(C)c1OCC(=O)N[C@@H](Cc1ccccc1)[C@@H](O)C[C@H](Cc1ccccc1)NC(=O)[C@H](C(C)C)N1CCNC1=O [Example 10F] ?
Ans: 92
